B1: TPR t1 (parent)
chain: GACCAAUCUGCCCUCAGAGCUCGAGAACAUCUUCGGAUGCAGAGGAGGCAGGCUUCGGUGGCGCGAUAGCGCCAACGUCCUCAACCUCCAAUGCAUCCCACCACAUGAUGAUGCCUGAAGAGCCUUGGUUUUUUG

variants of: B1; test: polymerase ribozyme fitness, log enrichment relative to wild type (log ratio); higher = more active; in vitro selection for triplet polymerase activity
Each entry below lists one item and its recorded polymerase ribozyme fitness (log ratio) value.
Format: numeric value only, no unit, no commentary.

// solved cases for polymerase ribozyme fitness (log ratio) follow
C40U U55G U78G U92A G110C G122A C124G ... -7.14
A18U G63U ... -4.1
A2C C4U G36U C73A C104U ... -2.65
U67C C82G A119G ... -5.87
C12U C70U C80A C97U A121G U133A ... -3.61
G48A U92A U106A ... -3.9

Q: Identify the reported polymerase ribozyme fitness (log ratio) for the following entry. C72U C86G U126G
Result: -3.16

Q: Identify the reported polymerase ribozyme fitness (log ratio) for the following entry. G63C C114U
Result: -2.19

Q: Identify the reported polymerase ribozyme fitness (log ratio) for the following entry. G61C U106C
Result: -2.89
